- ASSAY SYSTEM: T1, SUMO-^25-109MDM2 (UniProt Q00987 25-109)
- T1 construct: range 25-109; Expressed in Rosetta (DE3) pLysS cells, MW=23 297 Da, used with the SUMO tag on; not shown: SUMO fusion tag (protein purified on Ni-NTA)
- METHOD SUMMARY: BLI in-solution competition assay, free MDM2 read on immobilized 63a
Item-by-item account of Kd
// return numeric value only (unit: nM, not printed)

Worked examples, 2 binders total:
>>> value_observed("Ac-LTLEHYWAQLTSK-NH2 (Text says 3Phe to Leu or Tyr (8a and 9a)) [peptide 8b]")
2500
>>> value_observed("Ac-LTFEHYWAQYTSK-NH2 [peptide 7b]")
490

Now examine the next entry.
Quick note, Kd for Ac-LTYEHYWAQLTSK-NH2 (Text says 3Phe to Leu or Tyr (8a and 9a)) [peptide 9b] landed at 8700
